Ref: ChEMBL document CHEMBL1949536

System: P388
Assay: Cytotoxicity against mouse P388 cells after 96 hrs by MTT assay
Assay type: functional, cell-based
Measurement conditions: P388, 96 h
IC50 strictly less than 0.06 µM = true. Otherwise false.

For this compound, is IC50 lower than 0.06 µM? `C=C1C(=O)N2[C@H]3C(=CC=C[C@@H]3O)C[C@@]2(SC)C(=O)N1C`
false

I wonder whether `CN1C(=O)[C@]23CC4=CC=C[C@H](O)[C@H]4N2C(=O)[C@@]1(CO)SS3` has IC50 below 0.06 µM. Can you tell?
true

Take the compound CS[C@]1(CO)C(=O)N2c3c(O)cccc3C[C@@]2(SC)C(=O)N1C [DEHYDROBIS(METHYLTHIO)GLIOTOXIN] and say whether its IC50 is less than 0.06 µM.
false

Please determine if `CN1C(=O)[C@]23Cc4ccccc4N2C(=O)[C@@]1(CO)SS3` is below 0.06 µM in terms of IC50.
true

IC50 under 0.06 µM? Item: `CN1C(=O)[C@]23CC4=CC=C[C@H](O)[C@H]4N2C(=O)[C@@]1(CO)SSSS3`
true

# TODO verify IC50 < 0.06 µM strictly for this compound: `CN1C(=O)[C@]23Cc4cccc(O)c4N2C(=O)[C@@]1(CO)SS3`
true

Strictly below 0.06 µM: is that where IC50 of `CS[C@]1(CO)C(=O)N2[C@H]3C(=CC=C[C@@H]3O)C[C@@]2(SC)C(=O)N1C` sits?
false
